Where do the numbers come from? From the Bradley open melting point set (2014).

RECORDED_ENDPOINT: melting point (°C)

>>> recorded_measurement("CCCCC=O [pentanal]")
-91
>>> recorded_measurement("CC(C)(C)NCC(O)COc1cccc2c1C[C@H](O)[C@H](O)C2 (stereo not given in full) [Nadolol]")
130
>>> recorded_measurement("OB(O)c1cccc(Cl)c1Cl [2,3-dichlorobenzeneboronic acid]")
238
>>> recorded_measurement("CC(=O)c1cc(O)ccc1O [2',5'-dihydroxyacetophenone]")
206
>>> recorded_measurement("Cc1ccc(B(O)O)c(C)c1 [2,4-dimethylbenzeneboronic acid]")
206
>>> recorded_measurement("C[C@]12CC[C@@H]3c4ccc(O)cc4CC[C@H]3[C@@H]1CC[C@@H]2O [estradiol]")
176
>>> recorded_measurement("NC(=O)c1c(Cl)cccc1Cl [2,6-dichlorobenzamide]")
199
>>> recorded_measurement("Cc1ccc(C)c(Br)c1 [2-bromo-p-xylene]")
10
>>> recorded_measurement("c1ccc2c(c1)ccc1c3ccccc3ccc21 [Chrysene]")
253
>>> recorded_measurement("CCCCCCCCCCCCCCCCCl [1-chlorohexadecane]")
9
